Reference source for all entries: PubChem BioAssay (NCI)

# Test system: HOP-62 NSCLC
# EXPERIMENT NOTES: NCI-60 one-dose screen, 48 h
# TEST SETTINGS: 10 µM unless noted
Compounds without any hit were thinned out: in the full panel of roughly 83,000, 20% have a hit. The source made the active and inactive calls. How the source made its calls: active means growth percent below 10; inactive means the rest.
# valid calls are y = active, n = inactive; nothing else

- COMPOUND: "CC(C)(NC(=O)O[C@@H]1CN2CCC1CC2)c1csc(-c2ccc(F)cc2)n1"
  CAT: "n"
- COMPOUND: "C=CCCCN=C=S"
  CAT: "n"
- COMPOUND: "O=C(CC1(O)C(=O)N(Cc2ccccc2)c2ccc(F)cc21)c1ccc(C(=O)NCC2CCC3(CC2)OOC2(CCCCC2)OO3)cc1 (stereo not given)"
  CAT: "y"
- COMPOUND: "O=C(CC1(O)C(=O)Nc2ccccc21)c1ccc(C(=O)NCC2CCC3(CC2)OOC2(CCCCC2)OO3)cc1 (stereo not given)"
  CAT: "n"
- COMPOUND: "O=C(O)C1C(C(=O)O)C2(Cl)C(Cl)=C(Cl)C1(Cl)C2(Cl)Cl.[Hg] (stereo not given)"
  CAT: "n"
- COMPOUND: "CC(=O)Nc1ccc(NC(=O)c2ccc([As](O)O)cc2)cc1"
  CAT: "n"
- COMPOUND: "O=[N+]([O-])c1cc([N+](=O)[O-])c(Nn2c3ccccc3c3ccccc32)c([N+](=O)[O-])c1"
  CAT: "y"
- COMPOUND: "O=[N+]([O-])c1cnc[nH]1"
  CAT: "n"
- COMPOUND: "Fc1ccc(N2COOC3(OOC2)C2CC4CC(C2)CC3C4)cc1"
  CAT: "n"

Could you now consider this next compound?
**Q:** Dear all, I need the recorded test outcome for CN(C)C(=O)Oc1ccccc1 , thank you.
**A:** n
